- Tested target: SHP2 (Homo sapiens, UniProt Q06124)
- Sequence (Q06124 whole entry): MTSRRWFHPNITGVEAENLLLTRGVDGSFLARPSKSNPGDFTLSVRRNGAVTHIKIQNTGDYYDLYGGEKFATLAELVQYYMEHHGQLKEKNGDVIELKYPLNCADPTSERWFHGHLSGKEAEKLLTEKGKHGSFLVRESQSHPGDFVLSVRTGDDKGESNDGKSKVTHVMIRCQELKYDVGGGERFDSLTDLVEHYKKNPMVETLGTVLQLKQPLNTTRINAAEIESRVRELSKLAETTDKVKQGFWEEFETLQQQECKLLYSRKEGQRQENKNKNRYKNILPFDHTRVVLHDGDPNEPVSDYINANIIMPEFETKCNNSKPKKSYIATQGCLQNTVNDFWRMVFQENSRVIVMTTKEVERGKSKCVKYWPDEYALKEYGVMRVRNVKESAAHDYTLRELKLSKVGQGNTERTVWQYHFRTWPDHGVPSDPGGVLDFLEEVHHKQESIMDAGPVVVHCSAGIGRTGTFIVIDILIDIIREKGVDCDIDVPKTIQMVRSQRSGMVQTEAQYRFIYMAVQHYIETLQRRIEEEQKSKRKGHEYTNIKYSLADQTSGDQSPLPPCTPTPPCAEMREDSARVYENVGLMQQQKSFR
- Test details: SHP2 allosteric inhibitor enzyme activity assay (DiFMUP fluorescence)
- Format: biochemical
- Assay context: class symbols
- Experimental: SHP2 is activated by the binding of a bis-tyrosyl-phosphorylated peptide to its Src homologous 2 (SH2) domain. […] The catalytic activity of SHP2 was monitored using the alternative DiFMUP in a rapid fluorescence assay format. […] The dose-response curve is fitted with GraphPad Prism software and IC50 was calculated by the “log[inhibitor] vs. response-variable slope” program.
// IC50 lookup, one value per entry

>>> reported("N[C@@H]1c2ccccc2CC12CCN(c1nc3[nH]nc(C4(c5coc6ccccc56)CC4)c3c(=O)[nH]1)CC2 [Example 250]")
"≤ 20 nM"

Consider the compound shown here: C[C@@H]1OCC2(CCN(C3=NC4=NCCN4C(N)=C3C3(c4ccccc4)CC3)CC2)[C@@H]1N [Example 266] What is its recorded IC50?
> 60 nM

Lookup N[C@@H]1c2ccccc2CC12CCN(c1nc3[nH]nc(C4(c5ccccc5)CCC4)c3c3nncn13)CC2 [Example 92]
≤ 20 nM

// same read-out, input: N[C@@H]1c2ccccc2CC12CCN(c1nc3[nH]nc([C@H]4C[C@H]4c4ccccc4)c3c(=O)[nH]1)CC2 [Example 105]
≤ 20 nM

Next entry: N[C@@H]1c2ccccc2CC12CCN(c1nc3[nH]nc(C4(c5ccccc5)CCCC4)c3c(=O)[nH]1)CC2 [Example 97]
20 to 60 nM

Also Nc1nccc(C2(c3n[nH]c4nc(N5CCC6(CC5)Cc5ccccc5[C@H]6N)[nH]c(=O)c34)CC2)c1Cl [Example 46] , if possible.
≤ 20 nM

---

- Tested target: SHP2 (Homo sapiens)
- Test details: SHP2 allosteric inhibitor enzyme activity assay (DiFMUP fluorescence)
- Assay type: biochemical
- Assay context: class symbols
- Description: SHP2 is activated by the binding of a bis-tyrosyl-phosphorylated peptide to its Src homologous 2 (SH2) domain. […] The catalytic activity of SHP2 was monitored using the alternative DiFMUP in a rapid fluorescence assay format. […] The dose-response curve is fitted with GraphPad Prism software and IC50 was calculated by the “log[inhibitor] vs. response-variable slope” program.
pIC50: −log10 of the molar value.
Experimental readout: pIC50

Answered cases to consult:
>>> reported("N[C@@H]1c2ccccc2CC12CCN(c1nc3[nH]nc(C4(c5c[nH]nn5)CC4)c3c(=O)[nH]1)CC2")
"≥ 7.70"
>>> reported("CC1(C)C=C(c2n[nH]c3nc(N4CCC5(CC4)Cc4ccccc4[C@H]5N)[nH]c(=O)c23)c2ccccc21")
"≥ 7.70"
>>> reported("C[C@@H]1OCC2(CCN(c3nc4[nH]nc(C5(c6ccccc6C(F)(F)F)CC5)c4c(=O)[nH]3)CC2)[C@@H]1N")
"< 7.22"
>>> reported("N[C@@H]1c2ccccc2CC12CCN(c1nc3[nH]nc(C4(c5ccccc5)CCC4)c3c(=O)[nH]1)CC2")
"≥ 7.70"
>>> reported("CC1(C)C=C(c2n[nH]c3nc(N4CCC5(CC4)Cc4ccccc4[C@H]5N)[nH]c(=O)c23)c2cn(CC(F)(F)F)nc2C1")
"≥ 7.70"

Query the reported pIC50 for SHP2 (Homo sapiens); item: `CC1(C)C=C(c2n[nH]c3nc(N4CCC5(CC4)Cc4ccccc4[C@H]5N)[nH]c(=O)c23)c2cccnc2C1`
≥ 7.70

Follow-up entry: `CC(=O)c1cccc(C2(c3n[nH]c4nc(N5CCC6(CC5)CO[C@H](C)[C@@H]6N)[nH]c(=O)c34)CC2)c1`
7.22 to 7.70
